Experiment: Apparent permeability of the compound from apical to basolateral side in human Caco-2 cells incubated for 2 hrs by LC-MS/MS analysis
Conditions: caco-2, 2 h
Please note: Papp exactly at 3 ×10⁻⁶ cm/s is No. Only values below 3 ×10⁻⁶ cm/s get Yes.

### Prompt Confirm or reject: Papp of COc1cc(C#N)c(Oc2ccccc2C)cc1-n1c(=O)cc(C(N)=O)[nH]c1=O lies strictly below 3 ×10⁻⁶ cm/s
### Response Yes

### Prompt Confirm or reject: Papp of Cc1ccccc1Oc1cc(-n2c(=O)cc(C(F)(F)F)[nH]c2=O)c2ccccc2c1 lies strictly below 3 ×10⁻⁶ cm/s
### Response No

### Prompt Confirm or reject: Papp of COc1cc(C#N)c(Oc2ccccc2C)cc1-n1c(=O)cc(C(F)(F)F)[nH]c1=O lies strictly below 3 ×10⁻⁶ cm/s
### Response Yes

New cases:
### Prompt Confirm or reject: Papp of COc1cc(C#N)c(Oc2ccccc2C)cc1-n1c(=O)cc(C(F)(F)C(F)(F)F)[nH]c1=O lies strictly below 3 ×10⁻⁶ cm/s
### Response No

* * *

For each record, write down the corresponding IC50.
Molecular target: Branched-chain-amino-acid aminotransferase, cytosolic (Homo sapiens, UniProt P54687)
Sequence (P54687 whole entry): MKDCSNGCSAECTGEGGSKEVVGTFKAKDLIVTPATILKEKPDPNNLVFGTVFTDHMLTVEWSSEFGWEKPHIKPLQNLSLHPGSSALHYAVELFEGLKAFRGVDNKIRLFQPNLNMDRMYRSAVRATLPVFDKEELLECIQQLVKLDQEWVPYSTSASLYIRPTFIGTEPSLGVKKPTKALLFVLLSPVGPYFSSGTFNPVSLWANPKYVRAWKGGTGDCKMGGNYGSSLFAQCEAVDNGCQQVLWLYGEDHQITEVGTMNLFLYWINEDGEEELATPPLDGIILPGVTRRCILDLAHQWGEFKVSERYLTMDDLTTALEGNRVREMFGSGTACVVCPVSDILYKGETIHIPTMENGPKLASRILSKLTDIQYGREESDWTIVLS
In your response, put the unit directly after the numeric value.

### Prompt Give IC50 (Branched-chain-amino-acid aminotransferase, cytosolic (Homo sapiens, UniProt P54687)) of the following compound: CNC(=O)c1ccn2c(-n3c(=O)cc(C(F)(F)F)[nH]c3=O)c(-c3ccccn3)nc2c1
### Response 0.85 µM

New cases:
### Prompt Give IC50 (Branched-chain-amino-acid aminotransferase, cytosolic (Homo sapiens, UniProt P54687)) of the following compound: COc1cc(OC)c(-n2c(=O)cc(C(F)(F)F)[nH]c2=O)cc1Cl
### Response 3.3 µM

* * *

For each record, write down the corresponding IC50.
Target: UniProtKB O15382
Sequence (O15382 whole entry): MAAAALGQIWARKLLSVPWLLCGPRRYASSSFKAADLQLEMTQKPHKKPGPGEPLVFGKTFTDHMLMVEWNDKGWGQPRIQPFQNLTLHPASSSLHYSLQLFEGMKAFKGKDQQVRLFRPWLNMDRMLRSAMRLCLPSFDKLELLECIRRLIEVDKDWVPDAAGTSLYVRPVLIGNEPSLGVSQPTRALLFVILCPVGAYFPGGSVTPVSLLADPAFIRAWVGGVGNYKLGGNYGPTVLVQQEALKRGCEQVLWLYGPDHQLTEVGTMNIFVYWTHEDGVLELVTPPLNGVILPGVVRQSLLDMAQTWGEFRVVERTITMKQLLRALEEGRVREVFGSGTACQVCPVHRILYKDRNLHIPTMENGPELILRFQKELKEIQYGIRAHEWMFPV
Experiment: Inhibition of human recombinant BCAT2 using leucine and alpha-KG as substrate in presence of NADH by fluorescence assay

### Prompt Give IC50 (UniProtKB O15382) of the following compound: COc1cc(OC)c(-n2c(=O)cc(C(F)(F)F)[nH]c2=O)cc1Cl
### Response 20 µM

### Prompt Give IC50 (UniProtKB O15382) of the following compound: Cc1ccccc1Oc1cc(-n2c(=O)cc(C(F)(F)F)[nH]c2=O)c(F)cc1C#N
### Response 13.3 µM

New cases:
### Prompt Give IC50 (UniProtKB O15382) of the following compound: N#Cc1cc(F)c(-n2c(=O)cc(C(F)(F)F)[nH]c2=O)cc1Oc1ccccc1
### Response 13.4 µM

* * *

Assay: Metabolic stability in human liver microsomes assessed as maximal oral bioavailability incubated upto 60 mins by LC-MS/MS analysis
Assay type: ADME, Microsome
Observable: Fh at 1 h

### Prompt # lookup: Fh at 1 h of Cc1ccccc1Oc1cc(-n2c(=O)cc(C(F)(F)F)[nH]c2=O)c2ccccc2c1
### Response 40%

* * *

Test: Metabolic stability in Wistar Han rat hepatocyte assessed as blood clearance at 1 uM incubated upto 90 mins by LC-MS/MS analysis
Type: ADME, cell-based
Settings: hepatocytes
Observable: CLhep predicted at […], 1 µM (mL/min/kg)
Answers are plain numbers, in mL/min/kg.

### Prompt # lookup: CLhep predicted at […], 1 µM of Cc1ccccc1Oc1cc(-n2c(=O)cc(C(F)(F)F)[nH]c2=O)c2ccccc2c1 [BAY-771]
### Response 41.7

* * *

For each record, write down the corresponding Papp.
Assay: Apparent permeability of the compound from apical to basolateral side in human Caco-2 cells incubated for 2 hrs by LC-MS/MS analysis
Settings: caco-2, 2 h
In your response, put the unit directly after the numeric value.

### Prompt # lookup: Papp of COc1cc(C#N)c(Oc2ccccc2C)cc1-n1c(=O)cc(C(F)(F)c2ccccc2)[nH]c1=O
### Response 32.9 ×10⁻⁶ cm/s

### Prompt # lookup: Papp of COc1cc(Cl)c(Oc2ccccc2C)cc1-n1c(=O)cc(C(F)(F)F)[nH]c1=O
### Response 19.9 ×10⁻⁶ cm/s

### Prompt # lookup: Papp of COc1cc(C#N)c(Oc2ccccc2C)cc1-n1c(=O)cc(-c2ccccc2)[nH]c1=O
### Response 28.4 ×10⁻⁶ cm/s

### Prompt # lookup: Papp of COc1cc(C#N)c(Oc2ccccc2C)cc1-n1c(=O)cc(Br)[nH]c1=O
### Response 7.1 ×10⁻⁶ cm/s

### Prompt # lookup: Papp of COc1cc(C#N)c(Oc2ccccc2C)cc1-n1c(=O)cc(S(C)(=O)=O)[nH]c1=O
### Response 2.9 ×10⁻⁶ cm/s

Here are 2 compounds. What values of Papp were reported for them?
1. Cc1ccccc1Oc1cc(-n2c(=O)cc(C(F)(F)F)[nH]c2=O)c(C)cc1C#N
2. COc1cc(C#N)c(Oc2ccccc2C)cc1-n1c(=O)cc(S(=O)(=O)c2ccccc2)[nH]c1=O

### Response
1: 4.8 ×10⁻⁶ cm/s; 2: 0.05 ×10⁻⁶ cm/s
